Would you kindly list MDSC proportion (%) at 76.166 nM antibody for each of these binders?
- measured.target: HuCD100-His (human, UniProt Q92854 22-734)
- protocol.summary: cell-based or functional assay
Response body: numeric value in %, unit text excluded.

Name the recorded MDSC proportion (%) at 76.166 nM antibody for A31-VHH1 (antibody, human IgG4 S228P, V domains shown, also called humanized antibody A31-VHH1) VH: EVQLVESGGGLVQPEGSLRLSCAASGFPLDYYAIGWFRQAPGKEREGVSCIISGGSTKYSASVKGRFTISRDSAKNTVYLQMNSLRAEDTAVYFCAVSWSCDLFPRDTYGWDAWGQGTLVTVSS .
7.84

Name the recorded MDSC proportion (%) at 76.166 nM antibody for A9 (antibody, human IgG4 S228P, V domains shown, also called antibody A9; antibody molecule A9) VH: QVQLVESGGGLVQAGGSLRLSCAASGFSLDYYAIGWFRQAPGKEREEVSCISSSGGSTDYADSVKGRFTISRAYAKVYLQMNSLKPEDTAVYYCAAGVSGSVCPPLIGAYWGQGTQVTVSS .
5.12

Name the recorded MDSC proportion (%) at 76.166 nM antibody for A9-VHH2 (antibody, human IgG4 S228P, V domains shown) VH: QVQLVESGGGLVQAGGSLRLSCAASGFSLDYYAIGWFRQAPGKEREEVSCISSSGGSTDYADSVKGRFTISRAYAKVYLQMNSLRAEDTAVYYCAAGVSGSVCPPLIGAYWGQGTLVTVSS .
10.5

Name the recorded MDSC proportion (%) at 76.166 nM antibody for A31 (antibody, human IgG4 S228P, V domains shown, also called antibody A31; antibody molecule A31) VH: EVQLVESGGGLVQPEGSLRLSCAASGFPLDYYAIGWFRQAPGKEREGVSCIISGGSTKYSASVKGRFTISRDSANNTVYLQMNSLKPEDTAVYFCAVSWSCDLFPRDTYGWDAWGQGTLVTVSS .
10.4
